Hi there, I'd appreciate the recorded MFI for every entry that follows.
- tested target: T1, HLA-A0201 on T2 cells (human)
- T1 construct: MHC class I molecule on TAP-deficient T2 cells; also called HLA-A0201 antigen
- test details: T2 cell affinity test, 100 uM peptide overnight with human b2m, anti-HLA-A0201 FITC staining, flow cytometry
Give the figure by itself; no unit, no explanation.

Given KLMGIVYKL (Synthetic 9-mer; also called mutated polypeptide) [KLMGIVYKL polypeptide (SEQ ID NO: 4)] , respond with its MFI. 724

Given KMMGIVYKL (Synthetic 9-mer; also called mutated polypeptide) [KMMGIVYKL polypeptide (SEQ ID NO: 5)] , respond with its MFI. 692

Given KLMGIVYKV (Synthetic 9-mer made by solid phase synthesis; It is the fragment of the mutated (N136Y) Twist neighbor protein; also called mutated polypeptide) [KLMGIVYKV polypeptide (SEQ ID NO: 2)] , respond with its MFI. 666

Given KLMGIVNKV [wild-type polypeptide KLMGIVNKV (SEQ ID NO: 6)] , respond with its MFI. 648
